# EXPERIMENT: Vascular activity in receptor-dependent rat mesenteric resistance artery assessed as inhibition of noradrenaline-induced contraction at 3 x 10^-6 M after 5 mins
# Format: functional
pD2: recorded values
Respond numerically, and do not add a unit to the figure.

Guide cases for pD2, answers given:
MOLECULE: CN1CCC(OC(c2ccccc2)c2ccccc2)CC1
pD2: 5.38
//
MOLECULE: CN1CCC(OC(c2ccc(F)cc2)c2ccc(F)cc2)CC1
pD2: 5.1
//
MOLECULE: CCCCN1CCC(OC(c2ccc(Cl)cc2)c2ccc(Cl)cc2)CC1
pD2: 4.26
//
MOLECULE: CC(C)N1CCC(OC(c2ccc(F)cc2)c2ccc(F)cc2)CC1
pD2: 4.48

Input: Look at this molecule and give its reported pD2. CN1CCC(OC(c2ccccc2)c2ccc(Cl)cc2)CC1 (stereo not drawn)
Output: 5.08

Input: I would be grateful if you could share the reported pD2 for Fc1ccc(C(OC2CCNCC2)c2ccc(F)cc2)cc1 .
Output: 5.17

Input: Suppose we examine the molecule COC(=O)[C@H]1[C@@H](OC(=O)c2ccccc2)C[C@@H]2CC[C@H]1N2C ; what pD2 value has been reported?
Output: 6.52

Input: Please look up its pD2: NC[C@H](O)c1ccc(O)c(O)c1.O=C(O)C(O)C(O)C(=O)O
Output: 5.95
